TGI by entry:
System: UACC-62 melanoma
method-notes: NCI tumour cell line growth inhibition, 48 h
Where a SMILES comes first, the peptide text is derived from it. The star is where a group is joined. Boc = CC(C)(C)OC(=O)*; OSu = O=C1CCC(=O)N1O*

compound | display-unit | sign-qualifier | TGI
[N-]=[N+]=C1N=CN=C1c1ncn[nH]1 | µM | = | 56.3
CC(NC(=O)C(NC(=O)OC(C)(C)C)C(C)C)C(=O)NCC(=O)ON1C(=O)CCC1=O (stereo not drawn) (Boc-Val-Ala-Gly-OSu; configuration not given here) | µM | > | 100
O=C(c1ccco1)N1CCCN(C(=O)c2ccco2)C1=S | µM | > | 100
Cc1cc(=O)oc2cc(OC(=O)N(C)C)c(Cl)cc12 | µM | = | 83.2
c1cc(N(CCn2cccn2)CCn2cccn2)cc(N(CCn2cccn2)CCn2cccn2)c1 | µM | > | 100
